tgt: human PCSK9 / human LDLR EGFa domain interaction (Homo sapiens)
experimental_protocol: TR-FRET assay of inhibition of the PCSK9-LDLR protein-protein interaction
measurement_context: 20 nM biotinylated human PCSK9 + 20 nM his-tagged human LDLR EGFa domain, 2 hours room temperature
pIC50: −log10 of the molar value. *1 amine or outer side, *2 acyl side, *3 side chain or, on linkers, in order; H or OH if unused. Where a SMILES comes first, the peptide text is derived from it. Bridges are numbered along the chain shown (N, C = ends). [ ]: non-standard residue; d: D form. Trp(7-aza) = N[C@@H](Cc1c[nH]c2ncccc12)C(=O)O; mXylylene = c1cc(C[*:1])cc(C[*:2])c1; Chg = N[C@H](C(=O)O)C1CCCCC1; Tle = CC(C)(C)[C@H](N)C(=O)O; αMeV = CC(C)[C@](C)(N)C(=O)O; Nva = CCC[C@H](N)C(=O)O; Aib = CC(C)(N)C(=O)O; Mpa = O=C(O)CCS
Item-by-item account of pIC50

molecule	pIC50
CC(C)[C@]1(C)NC(=O)[C@H](Cc2ccc(O)cc2)NC(=O)[C@H](CCC(=O)O)NC(=O)C(C)(C)NC(=O)[C@H](Cc2c[nH]c3ncccc23)NC(=O)[C@H]([C@@H](C)O)NC(=O)[C@H](CCCCN)NC(=O)[C@H](Cc2ccc(O)cc2)NC(=O)[C@H](C(C)(C)C)NC(=O)CCSCc2cccc(c2)CSC[C@@H](C(N)=O)NC(=O)[C@H]([C@@H](C)O)NC1=O [Compound 063] ([Mpa][Tle]YKT[Trp(7-aza)][Aib]EY[αMeV]TC-NH2; linker 1-12 via mXylylene)	6.00 to 7.00

Now for another entry.
input: For human PCSK9 / human LDLR EGFa domain interaction (Homo sapiens), provide pIC50 of CCC[C@@H]1NC(=O)[C@H](Cc2c[nH]c3ncccc23)NC(=O)[C@H]([C@@H](C)O)NC(=O)[C@H](CCCCN)NC(=O)[C@H](Cc2ccc(O)cc2)NC(=O)[C@H](C(C)(C)C)NC(=O)CCSCc2cccc(c2)CSC[C@@H](C(N)=O)NC(=O)[C@H]([C@@H](C)O)NC(=O)[C@H](C2CCCCC2)NC(=O)[C@H](Cc2ccc(O)cc2)NC(=O)[C@H](CCC(=O)O)NC1=O [Compound 046] ([Mpa][Tle]YKT[Trp(7-aza)][Nva]EY[Chg]TC-NH2; linker 1-12 via mXylylene) please.
output: 6.00 to 7.00

---

tgt: human PCSK9 / human LDLR EGFa domain interaction (Homo sapiens, UniProt Q8NBP7)
Sequence (Q8NBP7 153-692): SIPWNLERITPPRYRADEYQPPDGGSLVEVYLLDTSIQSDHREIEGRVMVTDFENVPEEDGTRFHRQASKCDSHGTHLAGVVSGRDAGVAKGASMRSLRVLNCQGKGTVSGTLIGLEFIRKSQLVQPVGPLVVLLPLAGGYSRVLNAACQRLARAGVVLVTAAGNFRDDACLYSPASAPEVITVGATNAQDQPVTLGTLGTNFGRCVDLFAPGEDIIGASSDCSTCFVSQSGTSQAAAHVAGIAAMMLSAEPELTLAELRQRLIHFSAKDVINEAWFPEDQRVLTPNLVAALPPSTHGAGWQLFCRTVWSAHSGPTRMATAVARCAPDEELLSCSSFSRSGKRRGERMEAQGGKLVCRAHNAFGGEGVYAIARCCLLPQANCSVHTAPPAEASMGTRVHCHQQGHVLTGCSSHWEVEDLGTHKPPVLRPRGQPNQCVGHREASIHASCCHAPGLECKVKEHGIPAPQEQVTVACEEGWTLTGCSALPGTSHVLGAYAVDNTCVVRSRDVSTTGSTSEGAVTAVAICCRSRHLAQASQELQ
Sequence (Q8NBP7 31-152 partner limits assumed): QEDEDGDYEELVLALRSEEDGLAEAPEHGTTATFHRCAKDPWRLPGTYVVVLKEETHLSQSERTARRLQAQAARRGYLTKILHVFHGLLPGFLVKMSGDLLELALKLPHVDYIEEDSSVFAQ
experimental_protocol: TR-FRET assay of inhibition of the PCSK9-LDLR protein-protein interaction
measurement_context: 20 nM biotinylated human PCSK9 + 20 nM his-tagged human LDLR EGFa domain, 2 hours room temperature
*1 amine or outer side, *2 acyl side, *3 side chain or, on linkers, in order; H or OH if unused. Where a SMILES comes first, the peptide text is derived from it. Bridges are numbered along the chain shown (N, C = ends). [ ]: non-standard residue; d: D form. Trp(7-aza) = N[C@@H](Cc1c[nH]c2ncccc12)C(=O)O; mXylylene = c1cc(C[*:1])cc(C[*:2])c1; Chg = N[C@H](C(=O)O)C1CCCCC1; Tle = CC(C)(C)[C@H](N)C(=O)O; αMeV = CC(C)[C@](C)(N)C(=O)O; Nva = CCC[C@H](N)C(=O)O; Aib = CC(C)(N)C(=O)O; Mpa = O=C(O)CCS
readout_label: IC50

compound	tgt	IC50
CC(C)[C@]1(C)NC(=O)[C@H](Cc2ccc(O)cc2)NC(=O)[C@H](CCC(=O)O)NC(=O)C(C)(C)NC(=O)[C@H](Cc2c[nH]c3ncccc23)NC(=O)[C@H]([C@@H](C)O)NC(=O)[C@H](CCCCN)NC(=O)[C@H](Cc2ccc(O)cc2)NC(=O)[C@H](C(C)(C)C)NC(=O)CCSCc2cccc(c2)CSC[C@H](C(N)=O)NC(=O)[C@H]([C@@H](C)O)NC1=O [Compound 077] ([Mpa][Tle]YKT[Trp(7-aza)][Aib]EY[αMeV]T[dC]-NH2; linker 1-12 via mXylylene)	human PCSK9 / human LDLR EGFa domain interaction (Homo sapiens, UniProt Q8NBP7)	100 to 1000 nM

Now for another entry.
input: Return reported IC50; argument: CCC[C@@H]1NC(=O)[C@H](Cc2c[nH]c3ncccc23)NC(=O)[C@H]([C@@H](C)O)NC(=O)[C@H](CCC(=O)O)NC(=O)[C@H](Cc2ccc(O)cc2)NC(=O)[C@H](C(C)(C)C)NC(=O)CCSCc2cccc(c2)CSC[C@@H](C(N)=O)NC(=O)[C@H]([C@@H](C)O)NC(=O)[C@H](C2CCCCC2)NC(=O)[C@H](Cc2ccc(O)cc2)NC(=O)[C@H](CCCCN)NC1=O [Compound 047] ([Mpa][Tle]YET[Trp(7-aza)][Nva]KY[Chg]TC-NH2; linker 1-12 via mXylylene)
output: 100 to 1000 nM

---

Item-by-item account of pIC50
tgt: PCSK9 (Homo sapiens, UniProt Q8NBP7)
Construct: biotin (biotinylated)
Sequence (Q8NBP7 153-692): as the sequence (Q8NBP7 153-692) above
experimental_protocol: PCSK9 Alexa FRET Standard assay (displacement of AlexaFluor647-tagged cyclic peptide Reagent A)
Assay type: binding
measurement_context: 0.5 nM PCSK9, 20 nM AF cyclic peptide Reagent A
pIC50: −log10 of the molar value. *1 amine or outer side, *2 acyl side, *3 side chain or, on linkers, in order; H or OH if unused. Where a SMILES comes first, the peptide text is derived from it. Bridges are numbered along the chain shown (N, C = ends). [ ]: non-standard residue; d: D form. Trp(5-F) = N[C@@H](Cc1c[nH]c2ccc(F)cc12)C(=O)O; Trp(7-aza) = N[C@@H](Cc1c[nH]c2ncccc12)C(=O)O; mXylylene = c1cc(C[*:1])cc(C[*:2])c1; aThr = C[C@H](O)[C@H](N)C(=O)O; Tle = CC(C)(C)[C@H](N)C(=O)O; αMeV = CC(C)[C@](C)(N)C(=O)O; Aib = CC(C)(N)C(=O)O

compound	pIC50
CC(=O)N[C@H]1CSCc2cccc(c2)CSC[C@H](C(N)=O)NC(=O)[C@H]([C@H](C)O)NC(=O)[C@](C)(C(C)C)NC(=O)[C@H](Cc2ccc(O)cc2)NC(=O)[C@H](C)NC(=O)C(C)(C)NC(=O)[C@H](Cc2c[nH]c3ncccc23)NC(=O)[C@H]([C@@H](C)O)NC(=O)[C@@H]2CCCN2C(=O)[C@H](Cc2c[nH]c3ccc(F)cc23)NC(=O)[C@H](C(C)(C)C)NC1=O [Compound 042] (Ac-C[Tle][Trp(5-F)]PT[Trp(7-aza)][Aib]AY[αMeV][aThr][dC]-NH2; linker 1-12 via mXylylene)	7.00 to 9.00

Now for another entry.
input: Return reported pIC50; argument: CC1O[C@@H](C)[C@@H]2NC(=O)[C@@]1(C)NC(=O)[C@H](Cc1ccc(OP(=O)(O)O)cc1)NC(=O)[C@H](C)NC(=O)C(C)(C)NC(=O)[C@H](Cc1c[nH]c3ncccc13)NC(=O)[C@H]([C@@H](C)O)NC(=O)[C@@H]1CCCN1C(=O)[C@H](Cc1ccc(O)cc1)NC(=O)[C@H](C(C)(C)C)NC(=O)CCSCc1cccc(c1)CSC[C@@H](C(N)=O)NC2=O (some centres unmarked)
output: 7.00 to 9.00

---

tgt: PCSK9 (Homo sapiens)
Construct: biotin (biotinylated)
experimental_protocol: PCSK9 Alexa FRET Standard assay (displacement of AlexaFluor647-tagged cyclic peptide Reagent A)
Format: binding
measurement_context: 0.5 nM PCSK9, 20 nM AF cyclic peptide Reagent A
*1 amine or outer side, *2 acyl side, *3 side chain or, on linkers, in order; H or OH if unused. Where a SMILES comes first, the peptide text is derived from it. Bridges are numbered along the chain shown (N, C = ends). [ ]: non-standard residue; d: D form. Trp(7-aza) = N[C@@H](Cc1c[nH]c2ncccc12)C(=O)O; mXylylene = c1cc(C[*:1])cc(C[*:2])c1; pS = N[C@@H](COP(=O)(O)O)C(=O)O; Tle = CC(C)(C)[C@H](N)C(=O)O; αMeV = CC(C)[C@](C)(N)C(=O)O; Aib = CC(C)(N)C(=O)O; Mpa = O=C(O)CCS
readout_label: IC50

input: Return reported IC50; argument: CC(C)[C@]1(C)NC(=O)[C@H](Cc2ccc(O)cc2)NC(=O)[C@H](C)NC(=O)C(C)(C)NC(=O)[C@H](Cc2c[nH]c3ncccc23)NC(=O)[C@H]([C@@H](C)O)NC(=O)[C@@H]2CCCN2C(=O)[C@H](Cc2ccc(O)cc2)NC(=O)[C@H](C(C)(C)C)NC(=O)CCSCc2cccc(c2)CSC[C@@H](C(N)=O)NC(=O)[C@H](COP(=O)(O)O)NC1=O [Compound 016] ([Mpa][Tle]YPT[Trp(7-aza)][Aib]AY[αMeV][pS]C-NH2; linker 1-12 via mXylylene)
output: 1 to 100 nM

The measured values listed here are drawn from patent US11505575B2.
